- test.system: native serotonin 5-HT2A receptors (Rattus norvegicus, UniProt P14842)
- Construct: from tissue; host or cells: rat cortex membranes
- Sequence (P14842 whole entry): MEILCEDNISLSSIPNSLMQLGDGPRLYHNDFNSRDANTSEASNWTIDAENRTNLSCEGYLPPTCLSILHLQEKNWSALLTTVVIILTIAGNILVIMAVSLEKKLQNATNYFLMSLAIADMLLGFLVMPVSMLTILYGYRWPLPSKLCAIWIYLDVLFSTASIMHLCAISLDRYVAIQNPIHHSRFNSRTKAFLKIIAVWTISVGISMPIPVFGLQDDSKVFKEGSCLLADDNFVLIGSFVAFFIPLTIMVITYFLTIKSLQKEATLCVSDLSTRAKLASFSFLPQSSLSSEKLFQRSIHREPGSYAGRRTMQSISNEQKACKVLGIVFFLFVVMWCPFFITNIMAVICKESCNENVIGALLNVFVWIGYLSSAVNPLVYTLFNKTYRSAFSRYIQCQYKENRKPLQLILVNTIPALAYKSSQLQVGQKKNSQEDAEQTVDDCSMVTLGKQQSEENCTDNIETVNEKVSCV
- measurement.notes: Radioligand binding, [3H]-ketanserin, rat cortical membranes; as to Ki 5-HT2A: SEM ≤ 22%
- condition: read-out: Ki 5-HT2A
readout.name: potency estimated from few doses (nM)
// return numeric value only (unit: nM, not printed)

Incoming: Read the entry O=C(N[C@H]1CC(=O)N(CCCCN2CCN(c3cccc(C(F)(F)F)c3)CC2)C1=O)C1CCCCC1 [9{9,3}] and write its reported potency estimated from few doses.
Outgoing: 70

Incoming: Identify measured potency estimated from few doses corresponding to O=C(N[C@H]1CC(=O)N(CCCN2CCN(c3cccc(C(F)(F)F)c3)CC2)C1=O)C1CCCCC1 [9{8,3}]
Outgoing: 276

Incoming: Annotate the molecule O=C(NCCCCN1CCN(c2cccc(C(F)(F)F)c2)CC1)[C@@H]1CCCN1C(=O)C12CC3CC(CC(C3)C1)C2 [10{9,6}] with its measured potency estimated from few doses.
Outgoing: 699

Incoming: State its potency estimated from few doses: CC(=O)N[C@H]1CC(=O)N(CCCN2CCN(c3cccc(C(F)(F)F)c3)CC2)C1=O [9{8,1}]
Outgoing: 164

Incoming: State its potency estimated from few doses for this molecule: O=C(NCCCN1CCN(c2cccc(C(F)(F)F)c2)CC1)[C@@H]1CCCN1C(=O)C12CC3CC(CC(C3)C1)C2 [10{8,6}]
Outgoing: 1650

Incoming: Identify measured potency estimated from few doses corresponding to O=C(NCCCCN1CCN(c2cccc(C(F)(F)F)c2)CC1)[C@@H]1CCCN1C(=O)C1CCCC1 [10{9,2}]
Outgoing: 191

Incoming: Give recorded potency estimated from few doses. O=C(N[C@H]1CC(=O)N(CCCCN2CCN(c3cccc(C(F)(F)F)c3)CC2)C1=O)C1CCCC1 [9{9,2}]
Outgoing: 79

Incoming: Fill in reported potency estimated from few doses for this entry: O=C1C[C@H](NC(=O)C23CC4CC(CC(C4)C2)C3)C(=O)N1CCCCN1CCN(c2cccc(C(F)(F)F)c2)CC1 [9{9,6}]
Outgoing: 39
